# system.name: T1, 4H3625-AA
# T1 chain: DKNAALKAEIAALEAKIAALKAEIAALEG
# experimental.protocol: two-hybrid library CCmax;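 also: natural log of median RNA to DNA barcode read ratio; higher means stronger binding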
# reported.conditions: mean of both orientations
interaction score vs -0.1: at or above is condition met, below is condition not met.

{"binder": "DKIAALKAKIAALKAEIAALEAKNAALKG [4H2888-AA]", "class.name": "condition met"}
{"binder": "DKIAALEAENAALEAEIAALKAENAALEG [4H2187-AA]", "class.name": "condition not met"}
{"binder": "DENAALKAKNAALKAEIAALEAEIAALEG [4H1985-AA]", "class.name": "condition not met"}
{"binder": "DKIAALKAEIAALKAENAALEAKIAALKG [4H2646-AA]", "class.name": "condition not met"}
{"binder": "DKIAALKAKNAALEAKIAALKAEIAALEG [4H2985-AA]", "class.name": "condition met"}

Reference source for all entries: paper PMC10397247
